Target: SARS-CoV-2 S1 (antigen of the Carterra SPR kinetics) (SARS-CoV-2, UniProt P0DTC2 16-685)
Assay: Carterra SPR
Some binders, each annotated with its measured kon.
Quick reminder: number only, in M⁻¹ s⁻¹, skip the unit.

Known kon results, listed for orientation:
Binder	Units Symbol	Value Reported
1-4 (antibody, V domains shown, also called variant 1-4) VH: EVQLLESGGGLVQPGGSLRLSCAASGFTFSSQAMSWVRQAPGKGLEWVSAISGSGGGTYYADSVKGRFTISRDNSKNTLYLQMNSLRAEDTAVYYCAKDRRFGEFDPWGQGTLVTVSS VL: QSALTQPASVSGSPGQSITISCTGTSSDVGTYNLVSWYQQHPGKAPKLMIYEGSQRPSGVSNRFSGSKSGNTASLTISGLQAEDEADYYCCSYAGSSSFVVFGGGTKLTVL	M⁻¹ s⁻¹	42000
1-32 (antibody, V domains shown, also called variant 1-32) VH: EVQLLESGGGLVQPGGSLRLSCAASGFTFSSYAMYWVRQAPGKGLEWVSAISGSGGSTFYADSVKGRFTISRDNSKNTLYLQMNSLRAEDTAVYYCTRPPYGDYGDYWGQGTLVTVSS VL: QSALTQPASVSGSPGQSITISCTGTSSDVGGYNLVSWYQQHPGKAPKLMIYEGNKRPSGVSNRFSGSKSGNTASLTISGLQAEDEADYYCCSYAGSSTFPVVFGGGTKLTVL	M⁻¹ s⁻¹	5.49e+06

In the following, a different binder is considered.
Query block: What value of kon has been recorded for this entry: 1-7 (antibody, V domains shown, also called variant 1-7) VH: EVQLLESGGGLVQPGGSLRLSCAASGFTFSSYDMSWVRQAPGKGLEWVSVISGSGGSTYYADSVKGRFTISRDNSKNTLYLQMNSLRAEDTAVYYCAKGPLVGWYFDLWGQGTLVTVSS VL: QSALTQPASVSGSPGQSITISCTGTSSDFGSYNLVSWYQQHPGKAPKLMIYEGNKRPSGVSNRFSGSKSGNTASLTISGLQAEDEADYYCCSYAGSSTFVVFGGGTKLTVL
Result block: 1.34e+06
